Experiment: CCTE_Shafer_MEA_acute_per_network_burst_spike_number_std: CCTE's Neural Acute Assay for Standard Deviation of Number of Spikes in a Network Burst, Shafer Lab (AID 2284020);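 also: fitted for decrease in spike-number SD versus DMSO so actives lower it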
Calls of active or inactive are those of the source. The calls were made as follows: active = hit-call score of the fitted dose curve at least 0.9, where 1 is the maximum; inactive = score below 0.9.
Returns: one label drawn from 1.0 (active), 0.0 (inactive)

# count of solved cases: 3
Cc1ccc(N=CN(C)C=Nc2ccc(C)cc2C)c(C)c1: 1.0
N#CN=C1SCCN1Cc1ccc(Cl)nc1: 0.0
CC(C)=CC1C(C(=O)OCc2coc(Cc3ccccc3)c2)C1(C)C (centres undefined): 1.0

Okay, next one:
Q) Tell me the recorded outcome of this test for CCOc1cc(C(C)(C)C)ccc1C1COC(c2c(F)cccc2F)=N1 (centres undefined) .
A) 1.0

Source: PubChem BioAssay (EPA / NIEHS)
